Target: Androgen receptor (Rattus norvegicus)
Sequence (P15207 whole entry S389L): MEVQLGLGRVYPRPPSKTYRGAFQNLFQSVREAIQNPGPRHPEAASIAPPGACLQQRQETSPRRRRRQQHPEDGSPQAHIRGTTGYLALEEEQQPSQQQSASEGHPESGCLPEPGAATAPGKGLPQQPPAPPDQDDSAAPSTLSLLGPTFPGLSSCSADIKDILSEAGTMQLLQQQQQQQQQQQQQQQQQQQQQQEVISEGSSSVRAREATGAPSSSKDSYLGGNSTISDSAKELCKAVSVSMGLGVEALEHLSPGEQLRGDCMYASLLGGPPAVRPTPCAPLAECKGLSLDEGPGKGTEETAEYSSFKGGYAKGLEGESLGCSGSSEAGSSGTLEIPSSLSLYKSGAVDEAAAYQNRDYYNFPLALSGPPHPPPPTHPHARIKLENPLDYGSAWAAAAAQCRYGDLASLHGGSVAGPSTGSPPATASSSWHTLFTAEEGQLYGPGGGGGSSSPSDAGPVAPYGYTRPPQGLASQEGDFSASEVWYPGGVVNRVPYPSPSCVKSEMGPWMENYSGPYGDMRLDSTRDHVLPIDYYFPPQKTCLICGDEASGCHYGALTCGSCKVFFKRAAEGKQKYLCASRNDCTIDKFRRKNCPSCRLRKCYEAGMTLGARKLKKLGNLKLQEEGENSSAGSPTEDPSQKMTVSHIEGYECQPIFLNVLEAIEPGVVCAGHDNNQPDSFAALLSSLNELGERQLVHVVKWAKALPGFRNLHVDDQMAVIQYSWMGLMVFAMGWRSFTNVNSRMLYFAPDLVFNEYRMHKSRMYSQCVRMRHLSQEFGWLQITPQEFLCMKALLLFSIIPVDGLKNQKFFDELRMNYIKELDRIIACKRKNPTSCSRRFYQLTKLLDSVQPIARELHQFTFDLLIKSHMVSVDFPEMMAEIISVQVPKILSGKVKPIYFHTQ
quantity_kind: IC50 (nM)
Please state the figure in nM; there is no need to write the unit.

Use the examples below as a reference point.
record_smiles: Cn1c2c(c3cc(O)ccc31)CCc1cnccc1-2
IC50, nM: 930

record_smiles: Cn1c2c(c3cc(O)ccc31)CSc1cc(F)ccc1-2
IC50, nM: 630

record_smiles: Cn1c2c(c3cc(F)ccc31)CSc1cc(C(F)(F)F)ccc1-2
IC50, nM: 2800

record_smiles: Cn1c2c(c3ccc(O)cc31)C(C)(C)Sc1cc(O)ccc1-2
IC50, nM: 3400

record_smiles: Cn1c2c(c3cc(O)ccc31)CCc1sccc1-2
IC50, nM: 580

record_smiles: Cn1c2c(c3ccc(O)cc31)CCSc1ccccc1-2
IC50, nM: 5000

record_smiles: Cn1c2c(c3cc(F)ccc31)CSc1ccccc1-2
IC50, nM: 3700

record_smiles: CC(=O)Oc1ccc2c(c1)c1c(n2C)-c2ccccc2SC1
IC50, nM: 880

# input compound: Cn1c2c(c3ccc(O)cc31)CCCc1ccccc1-2 ; wanted: its IC50 920

# input compound: Cn1c2c(c3cc(O)ccc31)CSc1ccc(F)cc1-2 ; wanted: its IC50 110

# input compound: Cn1ccc2c1CCc1c-2n(C)c2ccc(O)cc12 ; wanted: its IC50 370

# input compound: Cn1c2c(c3ccc(O)cc31)CCc1ccccc1-2 ; wanted: its IC50 30
